Entries and their z-score
- assayInfo: yeast growth modulation, basal conditions, primary screen, YJM789 clinical isolate, OD600, 24 h (AID 1089);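 also: growth of clinical yeast isolate S. cerevisiae YJM 789 seeded 1000 cells per well; test concentration not given here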
- conditionInfo: S. cerevisiae YJM789 growth, higher = more signal, called active from +8 up or from −8 down
Activity calls are given as the source filed them.
parameterMeasured: z-score

- CCOC(=O)CCN1C(=O)[C@H]2[C@H]3[C@H](O)C=CC(=O)[C@@H]3CC[C@H]2C1=O: 0.595 (inactive)
- C[C@@H]1CC[C@H]2C(=O)O[C@H](COc3ccc(C(C)(C)C)cc3)CN2[C@H]1c1ccc(Br)cc1: 1.55 (inactive)
- CC(CCN1CCc2nc(-c3ccccc3)c(-c3ccccc3)cc2C1)=NO[C@H](C)c1cn([C@@H]2COC[C@H]2O)nn1: -0.0653 (inactive)
- CCOC(=O)[C@H](CC(C)C)NC(=O)CCC1CC(OC(=O)NCCc2ccc(F)cc2)CC2(CCCC(COC(=O)NCc3ccccc3)O2)O1 (some centres undefined): -0.341 (inactive)
